Recorded values, source patent US5135938A.

biological target: LTD4 induced contraction of guinea pig tracheal spiral strips (Cavia porcellus, UniProt Q2NNR5); construct: Guinea pig (adult male albino Hartley strain) tracheal spiral strips; from tissue; host or cells: guinea pig trachea (adult male albino Hartley strain), spiral strips; experiment: Inhibition of leukotriene (LTD4) induced contraction of guinea pig tracheal tissues in vitro; format: cell-based; settings: LTD4 concentration-response on guinea pig tracheal strips, 30 minutes pretreatment with test compound; KB from EC30 shift; current average where tested more than once; read-out: In Vitro Log K8 (-log KB, leukotriene antagonist activity) (converted)
Sequence (Q2NNR5 whole entry): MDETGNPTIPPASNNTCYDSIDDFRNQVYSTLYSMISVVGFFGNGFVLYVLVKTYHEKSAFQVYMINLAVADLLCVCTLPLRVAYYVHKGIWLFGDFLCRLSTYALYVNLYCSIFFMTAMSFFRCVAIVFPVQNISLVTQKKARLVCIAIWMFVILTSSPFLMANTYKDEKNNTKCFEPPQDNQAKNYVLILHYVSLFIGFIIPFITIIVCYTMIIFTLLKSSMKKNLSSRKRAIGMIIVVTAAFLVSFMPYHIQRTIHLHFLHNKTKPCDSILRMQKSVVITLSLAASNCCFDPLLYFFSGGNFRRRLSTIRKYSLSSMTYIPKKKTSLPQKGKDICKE
Structures can show the parent of a compound that is named as a salt.
quantity-name: Kb
Provide a numeric answer, followed by its unit.

See these solved cases before continuing.
{"molecule": "O=C(O)CCCn1nnnc1SC(CC(=O)O)c1ccccc1CCCCCCCCc1ccccc1 (stereo not drawn)", "quantity-name": "Kb", "result": "1000 nM"}
{"molecule": "CCCCCCCCCCCCc1ccccc1C(CC(=O)O)Sc1nnnn1CCCC(=O)O (stereo not drawn)", "quantity-name": "Kb", "result": "251 nM"}

Input: For O=C(O)Cn1nnnc1SC(c1ccccc1CCCCCCCCc1ccccc1)C(O)C(=O)O (stereo not drawn) , what is its reported Kb?
Output: 100 nM

Input: Please give the result for CCCCCCCCCCCCc1ccccc1C(SCCc1nnn[nH]1)C(=O)O (stereo not drawn) too.
Output: 316 nM

Input: Please give the result for CCCCCCCCCCCCc1ccccc1C(Sc1nc(C)c(C(=O)O)s1)C(=O)O (stereo not drawn) too.
Output: 200 nM

Input: Please give the result for O=C(O)CCCn1nnnc1SC(c1ccccc1CCCCCCCCc1ccccc1)C(O)C(=O)O (stereo not drawn) too.
Output: 100 nM

Input: Please give the result for CCCCCCCCCCCCc1ccccc1C(Sc1nnnn1CS(=O)(=O)O)C(=O)O (stereo not drawn) [Example 4, ammonium salt hydrate] too.
Output: 398 nM

Input: Please give the result for CCCCCCCCCCCCc1ccccc1C(Sc1nnnn1CCCC(=O)O)C(=O)O (stereo not drawn) too.
Output: 39.8 nM

Input: Please give the result for O=C(O)CC(Sc1nnnn1CC(=O)O)c1ccccc1CCCCCCCCc1ccccc1 (stereo not drawn) too.
Output: 501 nM
